Where do these numbers come from? They come from paper PMC10020958.

Record form. Attribute: % of 10 μM GABA response. Fill in for each entry.
target: α1β2γ2-GABA-A receptors stably expressed in HEK293 cells (Homo sapiens, UniProt P14867+P18507); construct: expressed in transfected cells; assay: Electrophysiological studies, automated patch clamp (QPatch16X), positive allosteric modulation of GABA-induced Cl- currents; format: cell-based; settings: compound 1 μM co-applied with 10 μM GABA; GABA alone = 100%; mean ± SEM
Sequence (P14867 28-456): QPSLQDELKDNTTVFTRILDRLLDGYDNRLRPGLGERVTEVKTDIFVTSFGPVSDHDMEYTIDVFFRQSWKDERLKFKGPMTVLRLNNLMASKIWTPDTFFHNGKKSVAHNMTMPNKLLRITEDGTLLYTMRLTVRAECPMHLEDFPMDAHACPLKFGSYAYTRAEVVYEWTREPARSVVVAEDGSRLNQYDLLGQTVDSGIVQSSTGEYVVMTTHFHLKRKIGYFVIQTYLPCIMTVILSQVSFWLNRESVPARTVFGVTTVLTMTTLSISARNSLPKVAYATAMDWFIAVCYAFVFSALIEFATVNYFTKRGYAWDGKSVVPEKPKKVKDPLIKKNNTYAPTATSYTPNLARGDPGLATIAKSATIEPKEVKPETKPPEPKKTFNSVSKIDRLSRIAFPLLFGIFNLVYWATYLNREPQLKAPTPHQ
Sequence (P47870 25-512 partner limits assumed): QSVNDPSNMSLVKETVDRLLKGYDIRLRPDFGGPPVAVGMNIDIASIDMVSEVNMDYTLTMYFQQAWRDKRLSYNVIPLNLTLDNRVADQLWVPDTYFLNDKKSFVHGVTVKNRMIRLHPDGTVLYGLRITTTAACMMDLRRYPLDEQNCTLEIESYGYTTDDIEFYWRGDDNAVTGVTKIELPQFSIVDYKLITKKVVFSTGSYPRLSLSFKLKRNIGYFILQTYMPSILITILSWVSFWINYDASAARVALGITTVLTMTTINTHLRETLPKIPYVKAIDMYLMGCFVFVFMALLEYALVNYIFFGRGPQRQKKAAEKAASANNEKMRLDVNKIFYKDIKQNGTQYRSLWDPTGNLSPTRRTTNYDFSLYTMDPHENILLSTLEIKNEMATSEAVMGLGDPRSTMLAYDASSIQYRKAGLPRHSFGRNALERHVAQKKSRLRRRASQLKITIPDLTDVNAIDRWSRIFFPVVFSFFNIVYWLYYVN
Sequence (P18507 40-475): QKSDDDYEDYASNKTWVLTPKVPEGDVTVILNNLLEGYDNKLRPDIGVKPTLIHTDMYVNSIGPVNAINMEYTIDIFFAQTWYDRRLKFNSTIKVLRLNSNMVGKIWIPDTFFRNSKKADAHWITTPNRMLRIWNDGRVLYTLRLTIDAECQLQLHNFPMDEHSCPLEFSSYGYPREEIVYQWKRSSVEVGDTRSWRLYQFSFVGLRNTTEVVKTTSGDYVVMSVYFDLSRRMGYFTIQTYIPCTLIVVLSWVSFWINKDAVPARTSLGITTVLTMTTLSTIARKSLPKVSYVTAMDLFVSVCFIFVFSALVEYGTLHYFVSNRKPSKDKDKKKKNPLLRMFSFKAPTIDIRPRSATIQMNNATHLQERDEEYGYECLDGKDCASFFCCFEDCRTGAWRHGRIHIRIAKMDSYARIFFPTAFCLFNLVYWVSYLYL

Ask | Look at this compound and give its reported % of 10 μM GABA response. `O=C(Cn1c(-c2ccc(F)cc2)nc2ccccc21)N1CCCC1`
Reply | 124 ± 5,2%

Ask | `NC(=O)c1cccc(NC(=O)Cn2c(-c3ccc(F)cc3)nc3ccccc32)c1` , same question.
Reply | 132 ± 13,2%

Ask | Next up: Cc1ccc(-c2nc3ccc(C)cn3c2CC(=O)N(C)C)cc1 [zolpidem, reference compound]
Reply | 212 ± 8,5%

Ask | Further, for `Cc1ccc2nc(-c3ccc(F)cc3)n(CC(=O)N3CCCC3)c2c1` ?
Reply | 172 ± 12,5%

Ask | Another compound to look at: `O=C(Cn1c(-c2ccc(F)cc2)nc2ccccc21)Nc1ccc(F)cc1`
Reply | 112 ± 2,8%

Ask | And for `CN(C)C(=O)Cn1c(-c2ccc(F)cc2)nc2ccccc21` ?
Reply | 105 ± 2,5%
